Biological target: β-catenin/Tcf4 interaction (Homo sapiens (Human), UniProt P35222)
Sequence (P35222 138-686): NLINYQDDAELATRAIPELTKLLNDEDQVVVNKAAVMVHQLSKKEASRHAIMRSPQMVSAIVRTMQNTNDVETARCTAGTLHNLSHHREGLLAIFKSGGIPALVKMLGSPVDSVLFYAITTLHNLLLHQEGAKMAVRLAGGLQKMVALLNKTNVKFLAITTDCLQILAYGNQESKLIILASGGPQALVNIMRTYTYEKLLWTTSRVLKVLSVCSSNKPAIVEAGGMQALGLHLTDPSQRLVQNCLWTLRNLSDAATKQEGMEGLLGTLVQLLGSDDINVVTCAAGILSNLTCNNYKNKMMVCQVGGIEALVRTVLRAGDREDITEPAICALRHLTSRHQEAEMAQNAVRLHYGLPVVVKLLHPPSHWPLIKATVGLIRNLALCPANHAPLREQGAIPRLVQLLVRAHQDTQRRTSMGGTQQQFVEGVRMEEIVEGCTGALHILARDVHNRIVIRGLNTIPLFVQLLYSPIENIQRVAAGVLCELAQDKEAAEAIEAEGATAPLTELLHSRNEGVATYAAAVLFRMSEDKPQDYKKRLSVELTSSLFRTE
Test: Fluorescence polarization (FP) competitive inhibition assay, β-catenin/Tcf4
Type: binding
Conditions: Table IV, FP assay; read-out: Ki ± SD β-catenin/Tcf4
READOUT_NAME: pKi
API: returns pKi as number; meaning -log10 of concentration in mol/L.

Ask: Give its pKi value. Item: COc1c(C[C@@H](C)OC(=O)Oc2ccc(O)cc2)c2c3c(C[C@@H](C)OC(=O)c4ccccc4)c(OC)c(=O)c4c(O)cc(OC)c(c5c(OC)cc(O)c(c1=O)c52)c43 [PKF115-584, reference compound]
Reply: 4.75

The measurements presented in this section are drawn from patent US9284299B2.
